- Tested on: urease
- Assay type: biochemical
- CONDITION_SET: pH 7.2
READOUT: % Inhibition Cazenovia Soil

See these solved cases before continuing.
Problem: Name the recorded % Inhibition Cazenovia Soil for COP(N)(N)=O [Experiment 9] .
Result: 34%

Problem: Give the measured % Inhibition Cazenovia Soil of CCCOP(N)(N)=O [Experiment 10] .
Result: 15%

Problem: Which value of % Inhibition Cazenovia Soil has been reported for NP(N)(=O)OCC(Cl)(Cl)Cl [Experiment 2] in the records?
Result: 97%

Problem: Give the measured % Inhibition Cazenovia Soil of NP(N)(=O)OCCCl [Experiment 4] .
Result: 84%

Problem: # get_value(readout='% Inhibition Cazenovia Soil', item= NP(N)(=O)OCCBr [Experiment 3] )
Result: 85%

Provide % Inhibition Cazenovia Soil for all items below, preserving their order.
1. NP(N)(=O)OCC(F)(F)F [Experiment 1]
2. C=CCOP(N)(N)=O [Experiment 6]

Result:
1. 97%
2. 65%

====

Please provide measured % Inhibition Cazenovia Soil for the entries that follow.
- Tested on: urease
- Assay type: biochemical
- CONDITION_SET: pH 7.2

Reference set, count: 3
Problem: What value of % Inhibition Cazenovia Soil has been recorded for this entry: "NP(N)(=O)OC1C(Cl)(Cl)CCCC1(Cl)Cl"
Result: 38%

Problem: Tell me the measured % Inhibition Cazenovia Soil of "NP(N)(=O)OCc1ccccc1" , please.
Result: 69%

Problem: Please give the measured % Inhibition Cazenovia Soil for this compound: "NP(N)(=O)OCCCCl"
Result: 41%

---
Problem: For the compound "NP(N)(=O)OC1CCCCC1" , what % Inhibition Cazenovia Soil is on record?
Result: 85%
